Source listed as patent US5064954A.

System: S. aureus Smith
Experiment: MIC against S. aureus Smith
Format: cell-based
Conditions: Staphylococcus aureus; Table II; S (key, unit and inoculum given only in Table I)
Kindly state MIC for each of the entries shown.

Below, 5 compounds whose answers are already recorded.
>  <compound>
CC(O)[C@H]1C(=O)N2C(C(=O)[O-])=C(C[N+]3(C)CCCC3)[C@H](C)[C@H]12 (stereo partly drawn)

>  <result>
0.025 µg/mL

$$$$
>  <compound>
CC(O)[C@H]1C(=O)N2C(C(=O)[O-])=C(C[N+]34CCN(CC3)CC4)[C@H](C)[C@H]12 (stereo partly drawn)

>  <result>
0.1 µg/mL

$$$$
>  <compound>
CC(O)[C@H]1C(=O)N2C(C(=O)[O-])=C(C[N+]3(C)CCCCC3)[C@H](C)[C@H]12 (stereo partly drawn)

>  <result>
0.025 µg/mL

$$$$
>  <compound>
CC(O)[C@H]1C(=O)N2C(C(=O)[O-])=C(C[N+]3(CC(=O)O)CCCC3)[C@H](C)[C@H]12 (stereo partly drawn)

>  <result>
0.39 µg/mL

$$$$
>  <compound>
CC(O)[C@H]1C(=O)N2C(C(=O)[O-])=C(C[N+]34CCC(CC3)CC4)[C@H](C)[C@H]12 (stereo partly drawn)

>  <result>
0.025 µg/mL

$$$$

Next up:
Input line: Reported MIC for CC(O)[C@H]1C(=O)N2C(C(=O)[O-])=C(C[N+]3(CC(N)=O)CCCC3)[C@H](C)[C@H]12 (stereo partly drawn) : what is it?
Output line: 0.1 µg/mL
